// data source = the supplement of paper PMC10567573

Could you please report measured protein stability index for the items listed next?
B1: JUNB (parent)
chain: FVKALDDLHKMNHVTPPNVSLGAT

Variants of: B1
Assay: protein stability index of a GFP-peptide fusion (GPS, HEK-293T) (PSI 1-6); higher = more stable;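 also: lentivirally expressed fusions sorted by FACS into six bins by GFP to DsRed ratio, PSI derived from sequencing read proportions per bin multiplied by bin number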
Conditions: c terminus: a fixed tail appended
Answers are plain numbers.

Your task in this section: give protein stability index for each listed record.
1. A4G
2. A4I
3. G22D
4. K10F
5. V14A
6. D6E
7. K10Q
8. F1T

Output line:
1. 2.68
2. 2.12
3. 2.43
4. 1.6
5. 2.24
6. 1.97
7. 1.95
8. 4.37

Your task in this section: give protein stability index for each listed record.
1. N18W
2. L21V
3. L5H
4. L21W
5. N12T
6. F1D
7. V14I
8. H13T

Output line:
1: 2.86; 2: 1.65; 3: 1.9; 4: 1.95; 5: 1.8; 6: 4.6; 7: 1.82; 8: 2.75
